- ASSAY_TARGET: mouse ADAMTS7 (Mus musculus, UniProt Q68SA9, E373Q)
- Construct: Full-length mouse Adamts7 1-1857 (Uniprot Q68SA9, WT or E373Q catalytic mutant); expressed in transfected cells; host or cells: Human Coronary Artery Smooth Muscle Cells (HCA-SMC, Lonza), adenovirus 50 MOI
- Sequence (Q68SA9 221-1657 E373Q): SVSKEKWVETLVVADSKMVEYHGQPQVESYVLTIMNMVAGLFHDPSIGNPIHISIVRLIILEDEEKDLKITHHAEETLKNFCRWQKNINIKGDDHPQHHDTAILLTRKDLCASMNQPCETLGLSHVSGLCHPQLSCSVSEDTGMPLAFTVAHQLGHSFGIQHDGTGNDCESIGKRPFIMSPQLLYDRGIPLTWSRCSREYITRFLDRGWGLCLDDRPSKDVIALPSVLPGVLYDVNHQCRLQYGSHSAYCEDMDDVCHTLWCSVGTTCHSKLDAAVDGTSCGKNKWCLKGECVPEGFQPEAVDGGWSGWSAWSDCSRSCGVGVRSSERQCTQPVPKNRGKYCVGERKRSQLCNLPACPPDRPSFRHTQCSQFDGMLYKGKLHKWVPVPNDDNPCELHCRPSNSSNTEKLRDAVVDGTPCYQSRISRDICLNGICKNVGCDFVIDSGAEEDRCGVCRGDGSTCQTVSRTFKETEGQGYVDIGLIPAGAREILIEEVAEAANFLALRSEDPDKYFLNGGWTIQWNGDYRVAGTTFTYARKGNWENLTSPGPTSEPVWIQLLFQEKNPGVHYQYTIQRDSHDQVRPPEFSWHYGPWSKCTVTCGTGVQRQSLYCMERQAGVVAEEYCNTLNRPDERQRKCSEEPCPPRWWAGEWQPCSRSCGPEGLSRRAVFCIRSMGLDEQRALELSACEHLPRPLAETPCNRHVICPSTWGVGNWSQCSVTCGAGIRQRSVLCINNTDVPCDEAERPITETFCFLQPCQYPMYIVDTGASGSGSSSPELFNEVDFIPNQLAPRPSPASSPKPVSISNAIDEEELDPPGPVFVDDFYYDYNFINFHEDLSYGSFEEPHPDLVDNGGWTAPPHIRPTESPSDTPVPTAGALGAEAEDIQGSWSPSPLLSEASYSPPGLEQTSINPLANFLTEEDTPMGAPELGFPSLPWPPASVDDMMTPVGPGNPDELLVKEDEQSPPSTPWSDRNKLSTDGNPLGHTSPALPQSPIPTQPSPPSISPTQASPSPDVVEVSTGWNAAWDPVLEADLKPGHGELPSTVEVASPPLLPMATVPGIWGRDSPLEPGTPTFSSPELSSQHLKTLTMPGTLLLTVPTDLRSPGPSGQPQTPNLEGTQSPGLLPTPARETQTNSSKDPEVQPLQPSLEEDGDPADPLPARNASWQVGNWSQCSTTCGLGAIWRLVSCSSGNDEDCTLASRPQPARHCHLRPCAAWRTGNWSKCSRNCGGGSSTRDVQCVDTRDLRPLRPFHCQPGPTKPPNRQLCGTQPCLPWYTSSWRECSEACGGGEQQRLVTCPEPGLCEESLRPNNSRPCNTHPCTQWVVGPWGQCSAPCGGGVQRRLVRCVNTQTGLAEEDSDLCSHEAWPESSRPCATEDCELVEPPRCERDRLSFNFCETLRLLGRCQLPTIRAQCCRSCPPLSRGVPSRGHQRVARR
- EXPERIMENTAL_PROTOCOL: TMT10 TAILS N-terminomics, SMC1 experiment (Ad-mADAMTS7 WT vs EQ vs Luc, technical replicates, trypsin digest)
- Format: cell-based
- CONDITION_SUMMARY: TAILS neo-N-terminal peptide abundance; log fold change, Ad-mADAMTS7 EQ over Luc
Lab note: compare logFC.mEQ.over.Luc with -0.09, writing 1.0 if less and 0.0 if equal or more.

Example entries begin here.
LOXL1_219 (VASAGVIYPYQPR; listed as Homo sapiens) | 1.0
HSPG2_275 (LLPGSVR; listed as Homo sapiens) | 0.0
FN1_886 (NQESTPVVIQQETTGTPR; listed as Homo sapiens) | 0.0
COL1A2_80 (QYDGKGVGLGPGPMGLMGPR; listed as Homo sapiens) | 0.0

In plain terms, does LGALS3BP_447 (FQAPSDYR; listed as Homo sapiens) come in under -0.09 for logFC.mEQ.over.Luc?
0.0

Is the reported logFC.mEQ.over.Luc for FBN1_53 (LKGPNVCGSR; listed as Homo sapiens) strictly below -0.09?
0.0

Input ECM1_43 (YAAPPSPPLSR; listed as Homo sapiens) ; condition: logFC.mEQ.over.Luc strictly below -0.09. Does it hold?
0.0

For this substance, is logFC.mEQ.over.Luc lower than -0.09? HEG1_49 (GAGLELQLER; listed as Homo sapiens)
0.0

State whether -0.09 exceeds logFC.mEQ.over.Luc recorded for ADAM9_69 (VIQAEGKEHIIHLER; listed as Homo sapiens) .
1.0

Bench note: check whether HSPG2_1937 (SSAGQQVAR; listed as Homo sapiens) shows logFC.mEQ.over.Luc below -0.09
1.0

Check if logFC.mEQ.over.Luc falls below -0.09 for COL1A2_1037 (HHGDQGAPGSVGPAGPR; listed as Homo sapiens) .
1.0

Threshold test, logFC.mEQ.over.Luc < -0.09: LTBP1_393 (LTATNFR; listed as Homo sapiens)
0.0
